The measurements presented in this section are drawn from ChEMBL document CHEMBL3885861.

Below, each entry is listed with its recorded APTT.
- Organism: Rattus norvegicus
- assay overview: Open TG-GATES - Regimen: Single
- Format: toxicity, organism-based, Sprague-Dawley
- Design: regimen Single, gender Male, age 6 weeks
- test conditions: in vivo, po, 10 mg/kg, 24 h, tissue Blood, route gavage, dose level Low
Give your result in s as a bare value.

## Task Name the reported APTT value associated with the compound `CN(C)CCN(Cc1cccs1)c1ccccn1`
## Result 19.8

## Task I have this compound here, `CN(C)CCCN1c2ccccc2CCc2ccc(Cl)cc21` , and I need its recorded APTT.
## Result 17.7

## Task Query: APTT; subject: `CN(C)CCCN1c2ccccc2CCc2ccccc21`
## Result 16.2

## Task // APTT lookup, key: `CC1=C(/C=C/C(C)=C/C=C/C(C)=C/CO)C(C)(C)CCC1`
## Result 21.5
